EXPERIMENTAL_TARGET: Carbonic anhydrase 9 (Homo sapiens, UniProt Q16790)
TEST_SUMMARY: Inhibition of recombinant human carbonic anhydrase 9 using 4-nitrophenylacetate as substrate
PROPERTY_NAME: pIC50
In textbook form, pIC50 equals minus log to base ten of the concentration in mol/L.

A selection of reference data follows.
- COMPOUND: "CC(C)O[C@@H]1O[C@H](CO)[C@@H](O)[C@H](O)[C@H]1NC(=O)c1ccc(S(N)(=O)=O)cc1"
  pIC50: 6.85
- COMPOUND: "CO[C@@H]1O[C@H](CO)[C@@H](O)[C@H](O)[C@H]1NC(=O)c1ccc(S(N)(=O)=O)cc1"
  pIC50: 7.05
- COMPOUND: "CCCO[C@@H]1O[C@H](CO)[C@@H](O)[C@H](O)[C@H]1NC(=O)c1ccc(S(N)(=O)=O)cc1"
  pIC50: 6.62
- COMPOUND: "CCC(=O)N[C@@H]1O[C@H](CO)[C@@H](O)[C@H](O)[C@H]1NC(=O)c1ccc(S(N)(=O)=O)cc1"
  pIC50: 6.56
- COMPOUND: "NS(=O)(=O)c1ccc(C(=O)O)cc1 [CARZENIDE]"
  pIC50: 4.62

Prompt line: What does the data say about its pIC50? Entry: CCO[C@@H]1O[C@H](CO)[C@@H](O)[C@H](O)[C@H]1NC(=O)c1ccc(S(N)(=O)=O)cc1
Response line: 6.82

Prompt line: Please give the result for CC(=O)N[C@@H]1O[C@H](CO)[C@@H](O)[C@H](O)[C@H]1NC(=O)c1ccc(S(N)(=O)=O)cc1 too.
Response line: 6.64
